# IC50 per record follows
Target: recombinant human DAO (diamine oxidase) (Homo sapiens)
Construct: purchased R&D systems
Sequence (P19801 20-751): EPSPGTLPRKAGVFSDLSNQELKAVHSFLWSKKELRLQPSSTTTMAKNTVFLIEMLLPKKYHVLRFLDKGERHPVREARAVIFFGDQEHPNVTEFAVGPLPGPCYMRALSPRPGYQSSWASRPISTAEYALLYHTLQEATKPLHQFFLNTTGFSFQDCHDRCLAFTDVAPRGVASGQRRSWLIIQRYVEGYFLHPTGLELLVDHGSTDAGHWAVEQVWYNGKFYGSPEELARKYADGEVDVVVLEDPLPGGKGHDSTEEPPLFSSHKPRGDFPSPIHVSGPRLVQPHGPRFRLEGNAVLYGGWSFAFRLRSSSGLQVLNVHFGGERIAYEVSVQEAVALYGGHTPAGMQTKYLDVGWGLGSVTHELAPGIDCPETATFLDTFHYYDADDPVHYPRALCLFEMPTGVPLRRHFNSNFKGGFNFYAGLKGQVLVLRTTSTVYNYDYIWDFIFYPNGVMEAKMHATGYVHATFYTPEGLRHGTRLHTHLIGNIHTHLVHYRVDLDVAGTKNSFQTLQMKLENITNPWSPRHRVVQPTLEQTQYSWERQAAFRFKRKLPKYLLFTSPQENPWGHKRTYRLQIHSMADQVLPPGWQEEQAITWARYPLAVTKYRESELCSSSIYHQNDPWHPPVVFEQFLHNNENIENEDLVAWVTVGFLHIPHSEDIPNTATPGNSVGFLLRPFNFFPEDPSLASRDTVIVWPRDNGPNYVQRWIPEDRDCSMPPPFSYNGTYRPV
Assay: Activity on recombinant human DAO, Amplex Red method, 1 mM putrescine substrate
Type: biochemical
Details: recombinant human DAO, 1 mM putrescine; * = between 10 and 100 nM, ** = between 300 and 1000 nM; read-out: Inhibitory Activity (IC50, nM) DAO
Counter-ions that a name gives are not always drawn.
Please state the figure in nM; there is no need to write the unit.

Recorded results for 2 molecules are shown here.
MOLECULE	IC50 [nM]
Cc1cc(-n2cnn(C/C(=C/F)CN)c2=O)cnc1-c1ccc2c(c1)OCO2 [Example 117]	2.5
Cc1cc(-c2cccc(-c3ncon3)c2)cnc1-n1cnn(C/C(=C/F)CN)c1=O [Example 140]	13000

For the next question, use this molecule.
Looking up NC/C(=C\F)Cn1ncn(-c2cccc(-c3ccc4c(c3)OCCO4)c2)c1=O [Example 95, hydrochloride] , I see its IC50 listed as 37

----------
# IC50 per record follows
Biological target: recombinant human MAO-A (monoamine oxidase-A) (Homo sapiens, UniProt P21397)
Construct: purchased Sigma-Aldrich
Sequence (P21397 whole entry): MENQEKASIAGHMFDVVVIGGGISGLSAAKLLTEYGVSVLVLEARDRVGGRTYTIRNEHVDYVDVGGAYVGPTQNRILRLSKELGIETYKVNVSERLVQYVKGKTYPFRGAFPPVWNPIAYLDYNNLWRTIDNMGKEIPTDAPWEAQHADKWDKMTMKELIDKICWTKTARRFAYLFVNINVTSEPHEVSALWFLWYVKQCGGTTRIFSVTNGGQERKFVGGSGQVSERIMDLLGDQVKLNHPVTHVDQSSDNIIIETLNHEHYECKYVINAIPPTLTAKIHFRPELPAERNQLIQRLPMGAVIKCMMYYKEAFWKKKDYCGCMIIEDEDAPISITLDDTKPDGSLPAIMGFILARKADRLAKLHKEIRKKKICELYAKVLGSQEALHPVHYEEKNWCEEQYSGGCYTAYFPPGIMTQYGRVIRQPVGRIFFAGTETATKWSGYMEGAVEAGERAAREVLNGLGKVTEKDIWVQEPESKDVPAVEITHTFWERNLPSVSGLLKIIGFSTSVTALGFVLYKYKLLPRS
Assay: Activity on recombinant human MAO-A, Amplex Red method, 0.5 mM tyramine substrate
Format: biochemical
Settings: 0.5 mM tyramine, read-out: Inhibitory Activity (IC50, nM) MAO-A
Counter-ions that a name gives are not always drawn.
Please state the figure in nM; there is no need to write the unit.

COMPOUND	SYSTEM	READOUT KIND	RESULT NUMBER
NC/C(=C\F)Cn1ncn(-c2ccc(Br)cc2)c1=O [Example 2]	recombinant human MAO-A (monoamine oxidase-A) (Homo sapiens, UniProt P21397)	IC50	2900

Looking up NC/C(=C/F)Cn1ncn(-c2nccs2)c1=O [Example 39, hydrochloride] , I see its IC50 listed as 5700

Looking up NC/C(=C/F)Cn1ncn(-c2ccc(Br)c(F)c2)c1=O [Example 13] , I see its IC50 listed as 155

Looking up Cc1cc(-c2cccc(-c3noc(C(C)C)n3)c2)cnc1-n1cnn(C/C(=C/F)CN)c1=O [Example 143, hydrochloride] , I see its IC50 listed as 112000

Looking up NC/C(=C\F)Cn1ncn(-c2ccc(Br)c(F)c2)c1=O [Example 14, hydrochloride] , I see its IC50 listed as 5200

Looking up Cc1cc(-n2cnn(C/C(=C/F)CN)c2=O)ncc1Br [Example 34, hydrochloride] , I see its IC50 listed as 6100
